Test: Pharmacokinetic data in CD-1 mice after oral administration
Type: in vivo
Conditions: mouse, serum, Table 7: CD-1 mice, nominal dose 5.10 mg/kg Cmpd. A or 6.57-8.40 mg/kg DV salt, analyte: dosed derivative (DV)
As shown below, each of these molecules has a reported Tmax value.
Give a bare numeral; the unit min is implied.

Worked examples follow.
molecule: Clc1ccc(COC2(c3ccc(Cl)cc3)c3ccccc3C3=NCCN32)cc1 (stereo not drawn)
metric-name: Tmax
value: 35
--
molecule: FC(F)(F)c1ccc(/C=C/COC2(c3ccc(Cl)cc3)c3ccccc3C3=NCCN32)cc1 (stereo not drawn)
metric-name: Tmax
value: 30
--
molecule: CC(C)/C=C/COC1(c2ccc(Cl)cc2)c2ccccc2C2=NCCN21 (stereo not drawn)
metric-name: Tmax
value: 15
--
molecule: COc1ccc(COC2(c3ccc(Cl)cc3)c3ccccc3C3=NCCN32)cc1OC (stereo not drawn)
metric-name: Tmax
value: 20
--
molecule: FC(F)(F)c1ccc(COC2(c3ccc(Cl)cc3)c3ccccc3C3=NCCN32)cc1 (stereo not drawn)
metric-name: Tmax
value: 30

Then this molecule:
*Q* Which Tmax value is on record for Clc1ccc(C2(OCC3OCCO3)c3ccccc3C3=NCCN32)cc1 (stereo not drawn) ?
*A* 20
